# Test system: MS2 coat protein
# measurementProtocol: apparent KD of MS2 coat protein; designed switch direction (-1 OFF switch, 1 ON switch): 1; higher = weaker reporter binding
# protocolConditions: Eterna round: R95; input ligand: none
Lab note: compare apparent KD of MS2 coat protein against 100 nM. Equal or greater, write Yes. Smaller, write No.

Solved cases (3 shown):
residueSequence: GGUCCAGCCUGAGCUGGACAAAAGCAUGUACAUGAGGAUCACCCAUGUCAUGUACAAGCUUUUUGCUCGUCAGAAAG [Mat - hsa-mir-208a - 98] (puzzle: Sensor for hsa-mir-208a)
system: MS2 coat protein
classLabel: No
//
residueSequence: UAAAUACAUGAGGAUCACCCAUGUCAAAAGACAUGAGGAUAUGUACAGACUUCGGUCUGUACAGAAGGCAUGAAAA [salish99_ss1_r3_095] (puzzle: Same State 1)
system: MS2 coat protein
classLabel: Yes
//
residueSequence: UCUUGGUUUUUGCUCGUUUUUUGUGUUGAACAUGAGGAUCACCCAUGUAUUGUACGGUCCAAUUUAAUAAUGGUCCA [JMF 37] (puzzle: Sensor for hsa-mir-208a)
system: MS2 coat protein
classLabel: No

--- query ---
Say whether GGUCCAGCCUGAGCUGGACAAAAGCAUGUACAUGAGGAUCACCCAUGUCAUGUACAAGCUUUUUGCUCGUCAUAAUU [Mat - hsa-mir-208a - 100] (puzzle: Sensor for hsa-mir-208a) shows apparent KD of MS2 coat protein of 100 nM or more.
Yes

----------
# System: MS2 coat protein
# measurementProtocol: apparent KD of MS2 coat protein; designed switch direction (-1 OFF switch, 1 ON switch): -1; higher = weaker reporter binding
# protocolConditions: input ligand: none
reportedMetric: apparent KD of MS2 coat protein (nM)
Numbers only, in nM.

The following sequences have reported results that may help.
residueSequence: CUGAGCUGAGGAUAUACAUGAGGAUCACCCAUGUGAAGUAGCUUGCGUACAGGCAGAUGUAGAAGGCAGUUCGG [Mod of JL 1 - Jieux - Exclusion 3] (Eterna round: R97, puzzle: Exclusion 3)
system: MS2 coat protein
units: nM
apparent KD of MS2 coat protein: 42.1

residueSequence: GCGGGCUUUUUGCUCGUUUACAUGAGGAUCACCCAUGUGUCUUCGCGCCCGGGCCCGGGCGGGCCCGGGCCCGGGCG [-52.3, -76.4, A 8%] (Eterna round: R97, puzzle: Sensor, turn-off variant 1)
system: MS2 coat protein
units: nM
apparent KD of MS2 coat protein: 41.5

residueSequence: AUAUCACAUGAGGAUCACCCAUGUCAGGAUAUCGACUGAACAGCUUCGGCUGUUCAGUCGAGAAGGGACAAUUA [Brourdxlusion 2 - Jieux - Exclusion 1] (Eterna round: R97, puzzle: Exclusion 1)
system: MS2 coat protein
units: nM
apparent KD of MS2 coat protein: 56.2

residueSequence: UGUAUCCGAGGAUAUCGCUUGAGGGACAUGAGGAUCACCCAUGUGAAGAAAAGCGUCCCGCGAGAAGGCGGACCCA [EX5 B.24] (Eterna round: R97, puzzle: Exclusion 5)
system: MS2 coat protein
units: nM
apparent KD of MS2 coat protein: 66.4

# next sequence below
Param item = AUCUGCACGCUGCGGUCCUACAUGAGGAUCACCCAUGUGGUCUGGUGGCGUGGGUCACCGGACUUGGCUCGUCUUGC [salish99_S_TOV1_R5_054] (Eterna round: R97, puzzle: Sensor, turn-off variant 1) ; retrieve measured apparent KD of MS2 coat protein.
19.6

----------
# System: K4 kissing-loop RNA reporter;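 note: bound reporter read as fluorescence of individual clusters on recovered sequencing chips by microscopy, with normalized cluster intensities fitted with a binding model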
# measurementProtocol: apparent KD of K4 kissing-loop reporter; higher = weaker reporter binding
# protocolConditions: Eterna round: R107; input ligand: theophylline 20 uM
reportedMetric: apparent KD of K4 kissing-loop reporter (nM)
Give bare numbers, in nM.

The following sequences have reported results that may help.
residueSequence: UUAGUUGAAAGUGAUACCAGACAAGUUAAGAGAAGAAAUUAAGUUGGAGUGAUGUUCCAAGUCCCUUGGCAGCACAUUGUAAUUU [Same State Theophylline B GF12]
units: nM
apparent KD of K4 kissing-loop reporter: 256
--
residueSequence: AAGAAGGUCAAAGACCUUCGUGCUCGUGAUACCAGUCGCGAAAGCGGCCCUUGGCAGCACGGCAGUGAUGUUGCCAAGAGCACAA [#13 K4 Theophylline A Same State]
units: nM
apparent KD of K4 kissing-loop reporter: 413
--
residueSequence: UCGGGCGGCUGAAGGAGCGGGCGGGCCCGAGUGAUGUUCGGGUGGGCCGUGAGGCCCGGAGCCCAGGUAGGUCGCGGUUCCGCCC [#2 Same State - Arginine B Attempt #23 (HarryS)]
units: nM
apparent KD of K4 kissing-loop reporter: 168
--
residueSequence: AAAAUAAGCCAGUGAUGUUGGUACCCAGAUACCAGCGACGAAAGUCGCCCUUGGCAGCUGUGGACGUACAAAAUAAGUACGUCCU
units: nM
apparent KD of K4 kissing-loop reporter: 617

# next sequence below
Param item = AGUGGUGUAUCUUUUAAGAGUGAUGUUUUUCGAGGACCGGUACGGCCGCCACUCGAGUGAUGAGUGCGUCGUUGUGGUGAUUAGU [#14 K4 Tryptophan A Exclusion] ; retrieve measured apparent KD of K4 kissing-loop reporter.
688

----------
# Test system: MS2 coat protein
# measurementProtocol: apparent KD of MS2 coat protein; designed switch direction (-1 OFF switch, 1 ON switch): -1; higher = weaker reporter binding
# protocolConditions: Eterna round: R95; input ligand: microRNA oligo, concentration not stated
reportedMetric: apparent KD of MS2 coat protein (nM)
One number for each entry, in nM.

The following sequences have reported results that may help.
residueSequence: CUGAGGUAGCGGUCCUAUGACAUGAGGAUCACCCAUGUGCCUUGCUACAAGCUUUUUGCUCGUUUUAUGAUUCUCGG [JL Atriat mod 10] (puzzle: Sensor v3, turn-off variant 1)
system: MS2 coat protein
apparent KD of MS2 coat protein [nM]: 64.6
//
residueSequence: AGUAGGUCUACCUUGGUGGAUCUGCAUUAUUCAAGUGUUACAUGAGGAUCACCCAUGUCCUCAUUUGCUCGUCUUAU [JL turnoff v2 99.25] (puzzle: Sensor v3, turn-off variant 2)
system: MS2 coat protein
apparent KD of MS2 coat protein [nM]: 45.7
//
residueSequence: UUUUACCUAGGAUAUACAUUUUUUUUAUUAUUUUCAUUAUAACAUGAGGAUCACCCAUGUAGAAGGAGGAUUUU [My Design] (puzzle: Exclusion 2)
system: MS2 coat protein
apparent KD of MS2 coat protein [nM]: 34.7
//
residueSequence: GUUAAACAUGAGGAUCACCCAUGUAAGGAUAUGCUGCGGUCGCGCUGACGUGACUGCAGCAGAAGGUACAAUUG [Mat - Mod of JL D51] (puzzle: Exclusion 1)
system: MS2 coat protein
apparent KD of MS2 coat protein [nM]: 64.8
//
residueSequence: CGGUACUGAGGAUAUACAUGAGGAUCACCCAUGUGUACCAGCUAGCGUACUGGCAUUAGUAGAAGGCGGUGCUG [JL-ex3-3.19 Brourd mod] (puzzle: Exclusion 3)
system: MS2 coat protein
apparent KD of MS2 coat protein [nM]: 14.3

Would you be so kind as to report apparent KD of MS2 coat protein for each listed record?
1. GGAUCUUGGGUCAGGAUAUGCUGAUAGUUAUGUCAGCAGAAGGGACAUGAGGAUCACCCAUGUGCUUGGUUUUG [Magic-17] (puzzle: Brourd's mod of Exclusion 4)
2. UCGGCGCGAGGAUAUGCGGUUUGUGCUUUGGGCCCUCGCGUACAUGAGGAUCACCCAUGUAGAAGGCGCGCCGC [Apr-15 SS2-46] (puzzle: Exclusion 2)
3. UGAAAGGUAGGAUAUACGAAGAAAAAGGGUAGAAUAAUAACACAUGAGGAUCACCCAUGUAGAAGGACCAAAGU [Mat - Exclusion 2 - Mod of my Tesla design - D10] (puzzle: Exclusion 2)

[13.1, 95.6, 26.2]

Would you be so kind as to report apparent KD of MS2 coat protein for each listed record?
1. AGUACUAACACGAAAGUGUUAGUACAAUAAGCUAGUGGAACAUGAGGAUCACCCAUGUCCUCAUUAGCUCGUCUUGG [Mat - Sensor v3 - Turn-off var 2 - D40] (puzzle: Sensor v3, turn-off variant 2)
2. GAUUACUGCAAGCUUUGGGACAUGAGGAUCACCCAUGUUCGUCUUAUUGAUCUAGGUACGCUGACGUACCUAGAUCU [JL-sv1-2.28 Brourd mod] (puzzle: Sensor v3, turn-off variant 1)

19.6
26

----------
# Tested on: MS2 coat protein
# measurementProtocol: apparent KD of MS2 coat protein; designed switch direction (-1 OFF switch, 1 ON switch): -1; higher = weaker reporter binding
# protocolConditions: input ligand: microRNA oligo, concentration not stated
reportedMetric: apparent KD of MS2 coat protein (nM)
One number for each entry, in nM.

The following sequences have reported results that may help.
residueSequence: ACAUGAGGAUCACCCAUGUAAUCAUAAUGGCUGAUGUAGAGUCAGGAUAUGUGUGGCUAACAAUCGCAGAAGGGACAAGACUGG [Deportation 32 - Jieux - Exclusion NG 3] (Eterna round: R96, puzzle: Exclusion NG 3)
apparent KD of MS2 coat protein, nM: 21.6
//
residueSequence: CUCAUGUGAGGAUAUAGUGCGUCUUCUAUUAUUAUUGAGUACUAGAAGGCACAUGAGGAUCACCCAUGUAGCAC [Ex4 - 3 - 45] (Eterna round: R96, puzzle: Exclusion 4)
apparent KD of MS2 coat protein, nM: 29.2
//
residueSequence: AAGGAUAGAGGAUAUACAUAGAUACAGAUUCAUGUAGAACUACAUGAGGAUCACCCAUGUAGAAGGCUAUCCUA [Mat - Same state - Mayanna Mod - D121] (Eterna round: R96, puzzle: Exclusion 2)
apparent KD of MS2 coat protein, nM: 24.8

Param item = UGAGCUUACGUAGGAUAUGAGGAUCACCCAUAGAAGGAUAUCGAAAGAGAAGGUCUGAGGAUUACCCAGAAGGACGUGGGCUCU [pwkr exNG2 2xF5 2xFMN.12] (Eterna round: R96, puzzle: Exclusion NG 2) ; retrieve measured apparent KD of MS2 coat protein.
122

The values you see were collected from the supplement of paper PMC9170038.
